experiment: Biodistribution and brain penetration after PO dose; format: in vivo, balb/c mice; conditions: male, BALB/c, mouse, plasma, po, 10 mg kg^−1, 24 h, PO 10 mg kg^−1, balb/c mice; read-out: Plasma Concentration
Readout Label: concentration at 24 h (ng/mL)
Number only, in ng/mL; omit the unit.

In: concentration at 24 h for Nc1nc2cc(CC[C@H]3C[C@@H](n4ccc5c(N)ncnc54)[C@H](O)[C@@H]3O)ccc2cc1Br ?
Out: 1.6

====

assay: Biodistribution and brain penetration after PO dose; type: in vivo, balb/c mice; settings: male, BALB/c, mouse, spleen, po, 10 mg kg^−1, 24 h after single PO 10 mg kg^−1, balb/c mice, n = 4; read-out: Content, Spleen
Readout Label: concentration at 24 h (ng/g)
Number only, in ng/g; omit the unit.

In: concentration at 24 h for Nc1nc2cc(CC[C@H]3C[C@@H](n4ccc5c(N)ncnc54)[C@H](O)[C@@H]3O)ccc2cc1Br [JNJ, JNJ-64619178] ?
Out: 95

====

experiment: Rapid equilibrium dialysis (RED) brain protein binding; type: in vitro ADME, mouse; settings: mouse, brain homogenate, mouse brain homogenate, RED, 5 h, 37 °C, n = 3; read-out: Brain Protein Binding (%)
Readout Label: fraction unbound at 5 h

In: fraction unbound at 5 h for Nc1nc2cc(CC[C@H]3C[C@@H](n4ccc5c(N)ncnc54)[C@H](O)[C@@H]3O)ccc2cc1Br ?
Out: < 0.06

====

assay: Caco-2 permeability study; type: in vitro ADME, human; conditions: human, Caco-2, absorptive direction (apical to basal), read-out: apparent permeability (Papp), Caco-2
Readout Label: Papp A→B at 120 min, 10 µM (×10⁻⁶ cm/s)
Number only, in ×10⁻⁶ cm/s; omit the unit.

In: Papp A→B at 120 min, 10 µM for Nc1nc2cc(CC[C@H]3C[C@@H](n4ccc5c(N)ncnc54)[C@H](O)[C@@H]3O)ccc2cc1Br ?
Out: 3.4

====

test: Biodistribution and brain penetration after PO dose; type: in vivo, balb/c mice; conditions: male, BALB/c, mouse, plasma, po, 10 mg kg^−1, 2 h, PO 10 mg kg^−1, balb/c mice; read-out: Plasma Concentration
Readout Label: concentration at 2 h (ng/mL)
Number only, in ng/mL; omit the unit.

In: concentration at 2 h for Nc1nc2cc(CC[C@H]3C[C@@H](n4ccc5c(N)ncnc54)[C@H](O)[C@@H]3O)ccc2cc1Br [JNJ, JNJ-64619178] ?
Out: 1470

====

test: Biodistribution and brain penetration after PO dose; assay type: in vivo, balb/c mice; conditions: male, BALB/c, mouse, lung, po, 10 mg kg^−1, 8 h after single PO 10 mg kg^−1, balb/c mice, n = 4; read-out: Content, Lung
Readout Label: concentration at 8 h (ng/g)
Number only, in ng/g; omit the unit.

In: concentration at 8 h for Nc1nc2cc(CC[C@H]3C[C@@H](n4ccc5c(N)ncnc54)[C@H](O)[C@@H]3O)ccc2cc1Br [JNJ, JNJ-64619178] ?
Out: 599

====

Test: In vivo PK study (plasma, IV and PO)
Parameters: species or system balb/c mice
Conditions: male, mouse, plasma; IV 2.5 mg kg^−1, balb/c mice, n = 6; read-out: Vz (volume of distribution)
Method: We performed in vivo PK analysis for JNJ by 2.5 mg kg^−1 IV and 10 mg kg^−1 PO routes of administration in healthy male balb/c mice. We could quantify a dynamic range of concentrations in in vivo PK samples with our established LC-MS/MS method. Non-compartmental analysis (NCA) was performed using Phoenix software version 8.3 to estimate PK parameters from the observed plasma concentration–time profile data. […] The NCA PK parameter data are represented in Table 6. […]
Readout Label: Vd (L/kg)
Number only, in L/kg; omit the unit.

In: Vd for Nc1nc2cc(CC[C@H]3C[C@@H](n4ccc5c(N)ncnc54)[C@H](O)[C@@H]3O)ccc2cc1Br [JNJ, JNJ-64619178] ?
Out: 1.2

====

experiment: In vivo PK study (plasma, IV and PO); set-up: species or system balb/c mice; settings: male, balb/c, mouse, plasma, 2.5 mg kg^−1; IV, equivalent to 0.23 L h^−1 kg^−1; read-out: observed plasma clearance
Readout Label: clearance (mL/min/kg)
Number only, in mL/min/kg; omit the unit.

In: clearance for Nc1nc2cc(CC[C@H]3C[C@@H](n4ccc5c(N)ncnc54)[C@H](O)[C@@H]3O)ccc2cc1Br ?
Out: 3.8

====

assay: In vivo PK study (plasma, IV and PO); parameters: species or system balb/c mice; conditions: male, balb/c, mouse, plasma, po, 10 mg/kg, PO 10 mg kg^−1, mice, plasma; read-out: Tmax (converted)
Readout Label: Tmax (min)
Number only, in min; omit the unit.

In: Tmax for Nc1nc2cc(CC[C@H]3C[C@@H](n4ccc5c(N)ncnc54)[C@H](O)[C@@H]3O)ccc2cc1Br [JNJ, JNJ-64619178] ?
Out: 30

====

experiment: Parallel artificial membrane permeability assay (PAMPA); type: physicochemical; details: 5 µg mL^−1 in PBS, room temperature, read-out: apparent permeability (Papp), PAMPA
Readout Label: Papp at 5 h, 5 µg mL^−1 (×10⁻⁶ cm/s)
Number only, in ×10⁻⁶ cm/s; omit the unit.

In: Papp at 5 h, 5 µg mL^−1 for Nc1nc2cc(CC[C@H]3C[C@@H](n4ccc5c(N)ncnc54)[C@H](O)[C@@H]3O)ccc2cc1Br [JNJ, JNJ-64619178] ?
Out: 7

====

experiment: Biodistribution and brain penetration after PO dose; type: in vivo, balb/c mice; settings: male, BALB/c, mouse, brain, po, 10 mg kg^−1, 2 h after single PO 10 mg kg^−1, balb/c mice, n = 4; read-out: Brain Content
Readout Label: concentration at 2 h

In: concentration at 2 h for Nc1nc2cc(CC[C@H]3C[C@@H](n4ccc5c(N)ncnc54)[C@H](O)[C@@H]3O)ccc2cc1Br [JNJ, JNJ-64619178] ?
Out: 55 ng/g

====

experiment: Biodistribution and brain penetration after PO dose; format: in vivo, balb/c mice; conditions: male, BALB/c, mouse, plasma, po, 10 mg kg^−1, 24 h, PO 10 mg kg^−1; estimated with fu,plasma = 0.025; read-out: Unbound Plasma Concentration
Readout Label: concentration at 24 h (ng/mL)
Number only, in ng/mL; omit the unit.

In: concentration at 24 h for Nc1nc2cc(CC[C@H]3C[C@@H](n4ccc5c(N)ncnc54)[C@H](O)[C@@H]3O)ccc2cc1Br ?
Out: 0.04

====

Assay: In vivo PK study (plasma, IV and PO)
Parameters: species or system balb/c mice
Details: male, mouse; PO 10 mg kg^−1, balb/c mice, plasma, n = 4
Experimental: We performed in vivo PK analysis for JNJ by 2.5 mg kg^−1 IV and 10 mg kg^−1 PO routes of administration in healthy male balb/c mice. We could quantify a dynamic range of concentrations in in vivo PK samples with our established LC-MS/MS method. Non-compartmental analysis (NCA) was performed using Phoenix software version 8.3 to estimate PK parameters from the observed plasma concentration–time profile data. […] The NCA PK parameter data are represented in Table 6. […]
Readout Label: Cmax
Param answer (str): number followed by unit.

In: Cmax for Nc1nc2cc(CC[C@H]3C[C@@H](n4ccc5c(N)ncnc54)[C@H](O)[C@@H]3O)ccc2cc1Br ?
Out: 2780 ng/mL

====

assay: In vivo PK study (plasma, IV and PO); parameters: species or system balb/c mice; settings: male, mouse; PO 10 mg kg^−1, balb/c mice, plasma, n = 4
Readout Label: AUC (ng·h/mL)
Number only, in ng·h/mL; omit the unit.

In: AUC for Nc1nc2cc(CC[C@H]3C[C@@H](n4ccc5c(N)ncnc54)[C@H](O)[C@@H]3O)ccc2cc1Br ?
Out: 6800

====

assay: Rapid equilibrium dialysis (RED) plasma protein binding; assay type: in vitro ADME; details: mouse, plasma, RED, 5 h, 37 °C, n = 3, read-out: Plasma Protein Binding (%)
Readout Label: fraction unbound at 5 h

In: fraction unbound at 5 h for Nc1nc2cc(CC[C@H]3C[C@@H](n4ccc5c(N)ncnc54)[C@H](O)[C@@H]3O)ccc2cc1Br [JNJ, JNJ-64619178] ?
Out: < 0.06

====

Assay: Microsomal metabolic stability, human liver microsomes
Type: in vitro ADME
Conditions: human, liver microsomes, pH 7.4; HLM, mean ± SD, n = 3; read-out: Half-life (t1/2)
Description: Mouse and human liver microsomes were used for the metabolic stability assay. […] Finally, after 1 h of collection, samples were vortexed at 1000 rpm for 1 min and centrifuged at 2200× g for 15 min, and the collected supernatant was analyzed using LC-MS/MS. The natural logarithm of the area ratio versus time was plotted, and the slope of the curve was calculated by a linear regression equation to generate the elimination rate constant, k (min^−1). […]
Readout Label: half-life at 1 µg mL^−1 (h)
Number only, in h; omit the unit.

In: half-life at 1 µg mL^−1 for Nc1nc2cc(CC[C@H]3C[C@@H](n4ccc5c(N)ncnc54)[C@H](O)[C@@H]3O)ccc2cc1Br ?
Out: 2.47
